subject of test: Factor X, P00742
Sequence (P00742 whole entry, looked up): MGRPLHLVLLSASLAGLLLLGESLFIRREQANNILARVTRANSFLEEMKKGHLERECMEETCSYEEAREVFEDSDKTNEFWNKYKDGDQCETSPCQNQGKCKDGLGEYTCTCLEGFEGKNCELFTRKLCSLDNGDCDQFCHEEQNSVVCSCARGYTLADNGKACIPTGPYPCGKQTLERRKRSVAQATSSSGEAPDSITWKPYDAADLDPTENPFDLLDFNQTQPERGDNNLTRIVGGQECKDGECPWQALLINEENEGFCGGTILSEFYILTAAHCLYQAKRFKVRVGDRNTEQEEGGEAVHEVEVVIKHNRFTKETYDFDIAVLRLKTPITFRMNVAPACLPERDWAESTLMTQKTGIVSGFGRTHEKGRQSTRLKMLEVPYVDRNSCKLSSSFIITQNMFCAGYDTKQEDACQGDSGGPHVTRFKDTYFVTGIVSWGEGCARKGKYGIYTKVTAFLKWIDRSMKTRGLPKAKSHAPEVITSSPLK
# kcat/KM values compiled below
State the answer as a number, implicitly in M⁻¹ s⁻¹.

Answered cases to consult:
| protein | measurement type | unit of measurement | assay result |
| --- | --- | --- | --- |
| FIXa-Y155F/R318Y/R338E/R403E/E410N (mature FIX numbering) (protein) chain 1: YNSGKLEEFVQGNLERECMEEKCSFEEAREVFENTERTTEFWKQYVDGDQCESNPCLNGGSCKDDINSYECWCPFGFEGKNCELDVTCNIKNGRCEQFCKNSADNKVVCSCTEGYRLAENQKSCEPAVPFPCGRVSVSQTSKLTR chain 2: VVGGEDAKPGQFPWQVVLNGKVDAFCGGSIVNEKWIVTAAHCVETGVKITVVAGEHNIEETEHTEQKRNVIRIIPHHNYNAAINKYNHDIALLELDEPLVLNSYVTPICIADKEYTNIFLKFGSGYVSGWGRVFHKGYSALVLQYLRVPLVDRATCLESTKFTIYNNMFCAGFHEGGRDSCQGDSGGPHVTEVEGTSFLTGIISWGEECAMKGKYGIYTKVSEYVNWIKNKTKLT | kcat/KM | M⁻¹ s⁻¹ | 1.9e+08 |
| FIXa-R318Y/R338E/T343R/E410N (protein) chain 1: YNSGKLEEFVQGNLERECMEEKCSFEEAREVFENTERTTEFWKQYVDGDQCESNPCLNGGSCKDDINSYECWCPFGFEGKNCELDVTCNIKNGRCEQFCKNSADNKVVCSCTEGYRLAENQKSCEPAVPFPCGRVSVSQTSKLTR chain 2: VVGGEDAKPGQFPWQVVLNGKVDAFCGGSIVNEKWIVTAAHCVETGVKITVVAGEHNIEETEHTEQKRNVIRIIPHHNYNAAINKYNHDIALLELDEPLVLNSYVTPICIADKEYTNIFLKFGSGYVSGWGRVFHKGYSALVLQYLRVPLVDRATCLESTKFRIYNNMFCAGFHEGGRDSCQGDSGGPHVTEVEGTSFLTGIISWGEECAMKGKYGIYTKVSRYVNWIKNKTKLT | kcat/KM | M⁻¹ s⁻¹ | 3.4e+08 |
| FIXa-R318Y/R403E/E410N (mature FIX numbering) (protein) chain 1: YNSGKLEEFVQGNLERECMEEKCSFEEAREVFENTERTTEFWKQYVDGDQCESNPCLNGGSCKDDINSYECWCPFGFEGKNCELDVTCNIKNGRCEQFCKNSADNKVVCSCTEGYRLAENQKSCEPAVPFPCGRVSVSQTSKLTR chain 2: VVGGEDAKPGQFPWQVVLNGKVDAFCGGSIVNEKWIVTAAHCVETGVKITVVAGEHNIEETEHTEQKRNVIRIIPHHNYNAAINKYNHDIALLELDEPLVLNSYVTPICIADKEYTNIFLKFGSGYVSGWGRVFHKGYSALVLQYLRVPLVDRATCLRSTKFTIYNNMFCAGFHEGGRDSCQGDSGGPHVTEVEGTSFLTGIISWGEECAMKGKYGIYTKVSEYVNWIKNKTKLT | kcat/KM | M⁻¹ s⁻¹ | 2.7e+07 |

Below: the item to evaluate.
Input line: Given the protein FIXa-K247N/N249S/R318Y/R338E/T343R/R403E (protein) chain 1: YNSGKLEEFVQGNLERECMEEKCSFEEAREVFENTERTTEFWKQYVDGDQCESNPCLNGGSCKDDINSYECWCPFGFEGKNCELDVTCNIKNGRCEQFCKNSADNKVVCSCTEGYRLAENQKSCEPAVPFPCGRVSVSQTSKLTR chain 2: VVGGEDAKPGQFPWQVVLNGKVDAFCGGSIVNEKWIVTAAHCVETGVKITVVAGEHNIEETEHTEQNRSVIRIIPHHNYNAAINKYNHDIALLELDEPLVLNSYVTPICIADKEYTNIFLKFGSGYVSGWGRVFHKGYSALVLQYLRVPLVDRATCLESTKFRIYNNMFCAGFHEGGRDSCQGDSGGPHVTEVEGTSFLTGIISWGEECAMKGKYGIYTKVSEYVNWIKEKTKLT , write its reported kcat/KM.
Output line: 4.1e+08

// provenance: patent US20210238260
